src = patent US9062100B2

# subject.of.test: T1, human TROP-2 (hTROP-2) (human)
# T1 chain: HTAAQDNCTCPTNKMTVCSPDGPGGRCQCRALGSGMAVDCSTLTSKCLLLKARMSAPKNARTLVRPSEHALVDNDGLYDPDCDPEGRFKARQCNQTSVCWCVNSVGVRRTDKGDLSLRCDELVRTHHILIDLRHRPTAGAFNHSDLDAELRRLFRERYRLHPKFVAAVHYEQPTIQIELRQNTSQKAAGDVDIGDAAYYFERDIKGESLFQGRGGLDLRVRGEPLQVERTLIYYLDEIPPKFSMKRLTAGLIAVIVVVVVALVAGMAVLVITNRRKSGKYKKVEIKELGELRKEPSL
# test.name: FACS on BxPC-3 cells
Each record here notes measured mean fluorescence intensity, times that with PE-labeled anti-mouse IgG only.
Write it as a number; the unit times goes unstated.

// worked examples, mean fluorescence intensity, times that with PE-labeled anti-mouse IgG only included
anti-hTROP-2 monoclonal antibody K5-116-2-1 (antibody, V domains shown) VH: QVQLQQPGAELVRPGASVKLSCKASGYTFTSYWITWVKQRPGQGLEWIGNIYPSDSYTNYNQKFRDKATLTVDKSSSTAYMQLSSPTSEDSAVYYCSALFDYWGQGTTLTVSS VL: DILLTQSPAILSVSPGERVSFSCRASQSIGTSIHWYQQRTNGSPRLLIKYASESISGIPSRFSGSGSGTDFILSINSVESEDIADYYCQQSNSWPFTFGSGTKLEIK = 121
anti-hTROP-2 monoclonal antibody K5-107 (antibody, V domains shown) VH: QVQLQQPGSELVRPGASVKLSCKASGYTFTSYWMHWVKQRHGQGLEWIGNIYPGGGYTNYDEKFKSKGTLTVDTSSSTAYMHLSSLTSEDSAVYYCTRSSVFDYWGQGTTLTVSS VL: DILLTQSPAILSVSPGERVSFSCRASQNIGTSIHWFQQRTNGSPRLLIKYASESISGIPSRFSGSGSGTDFTLSINSVESEDIADYYCQQSNSWPFTFGSGTKLEIK = 90
anti-hTROP-2 monoclonal antibody T6-16 (antibody, V domains shown) VH: EVQLQQSGPELVKPGASVKISCKASGYTFTDYNMHWVKQSHGKNLEWIGYIYPYNGGTGYNQRFKSRATMTVDKSSSTAYMELRSLTSDDSAVYYCAREDYGSSPSYAMDYWGQGTSVIVSS VL: DVVMTQTPLSLPVSLGDQASISCRSSQSLVHGNGNTYLHWYLQKPGQSPKLLIYKVSNRFSGVPDRFSGSGSGTDFTLKISRVEAEDLGVYFCSQTTHVPTFGSGTKLEIK = 25

Kindly consider the entry below.
Using known records, supply mean fluorescence intensity, times that with PE-labeled anti-mouse IgG only for anti-hTROP-2 monoclonal antibody K5-70 (antibody, V domains shown) VH: QVQLQQPGAELVRPGASVKLSCKASGYTFTIYWINWVKQRPGQGLEWIGNIYPSDSYTNYNQKFKDKATLTVDKSSSTAYMQLSSPTSEDSAVYYCTRTSMADYWGQGTTLTVSS VL: DILLTQSPAILSVSPGERVSFSCRASQSIGTSIHWYQQRTNGSPRLLIKYASESISGIPSRFSGSGSGTDFTLSINSVESEDIADYYCQQSNSWPFTFGSGTKLEIK
45
